The entries that follow carry pIC50 values tested on ERAP1 (Homo sapiens, UniProt Q9NZ08), drawn from several published reports.
pIC50: −log10 of the molar value.
Endpoint Label: pIC50

INSERT INTO measurements (compound, result) VALUES
  ('O=C(O)c1ccc(C2CC2)c(S(=O)(=O)Nc2cc(-c3ccns3)ccc2-c2ccc(F)s2)c1', '> 6.30'),
  ('CCc1ccc(C(=O)O)cc1S(=O)(=O)Nc1cc(S(C)(=O)=O)ccc1N1CCCCC1', '> 6.30'),
  ('CCc1ccc(C(=O)O)cc1S(=O)(=O)Nc1cc(C(F)(F)F)ccc1-c1cccs1', '> 6.30'),
  ('CCc1ccc(C(=O)O)cc1S(=O)(=O)Nc1cc(-c2cncn2C)ccc1N1CCCCC1', '> 6.30'),
  ('COc1ccc(C(=O)O)cc1S(=O)(=O)Nc1cc(C(F)(F)F)cc(F)c1N1CCCCC1', '> 6.30'),
  ('CSc1ccc(C(=O)O)cc1S(=O)(=O)Nc1cc(C(F)(F)F)ccc1N1CCCCC1', '> 6.30'),
  ('CCc1ccc(C(=O)O)cc1S(=O)(=O)Nc1cc(S(C)(=O)=O)ccc1C1CCCCC1', '> 7.00'),
  ('CCc1ccc(C(=O)O)cc1S(=O)(=O)Nc1cc(C#N)ccc1-c1cccnc1', '> 6.30'),
  ('CS(=O)(=O)c1ccc(C2CCCCN2)c(NS(=O)(=O)c2cc(C(=O)O)ccc2C2CC2)c1 (stereo not shown)', '> 7.00'),
  ('CCc1ccc(C(=O)O)cc1S(=O)(=O)Nc1cc(C(F)(F)F)ccc1N1CCCOCC1', '> 6.30'),
  ('COc1ccc(C(=O)O)cc1S(=O)(=O)Nc1cc(C(F)(F)F)ccc1-c1cccc(F)c1', '> 6.30'),
  ('N#Cc1cc(NS(=O)(=O)c2cc(C(=O)O)ccc2C2CC2)c(OC2CCC(F)(F)C2)cc1Cl (single isomer, unassigned)', '> 9.00'),
  ('COc1ccc(C(=O)O)cc1S(=O)(=O)Nc1cc(S(C)(=O)=O)ccc1-c1ccccn1', '> 6.30'),
  ('CCc1ccc(C(=O)O)cc1S(=O)(=O)Nc1cc(S(C)(=O)=O)ccc1-c1ccccn1', '> 6.30'),
  ('CCc1ccc(C(=O)O)cc1S(=O)(=O)Nc1cc(-c2cnccn2)ccc1N1CCCCC1', '> 6.30'),
  ('COc1ccc(C(=O)O)cc1S(=O)(=O)Nc1cc(C(F)(F)F)ccc1N1CC[C@@H](O)C1', '> 5.30'),
  ('N#Cc1cc(NS(=O)(=O)c2cc(C(=O)O)ccc2C2CC2)c(OC2CC(F)(F)C2)cc1Cl', '8.30 to 9.00'),
  ('O=C(O)c1ccc(C2CC2)c(S(=O)(=O)Nc2cc(-c3ccns3)ccc2C2CCCCN2)c1 (stereo not shown)', '> 7.00'),
  ('CCc1ccc(C(=O)O)cc1S(=O)(=O)Nc1cc(C(F)(F)F)ccc1OC1CCCC1', '< 8.30'),
  ('CCc1ccc(C(=O)O)cc1S(=O)(=O)Nc1cc(C(F)(F)F)ccc1-c1ccc(F)s1', '> 6.30'),
  ('CCc1ccc(C(=O)O)cc1S(=O)(=O)Nc1cc(C(F)(F)F)ccc1-c1cccc(C#N)c1', '> 6.30'),
  ('CCc1ccc(C(=O)O)cc1S(=O)(=O)Nc1cc(-c2ncnn2C)ccc1N1CCCCC1', '> 6.30'),
  ('CCc1ccc(C(=O)O)cc1S(=O)(=O)Nc1cc(C(F)(F)F)ccc1N1CCCC[C@H]1C', '> 6.30'),
  ('Cc1ccc(C(=O)O)cc1S(=O)(=O)Nc1cc(C(F)(F)F)ccc1N1CCCCCC1', '> 6.30'),
  ('CCc1ccc(C(=O)O)cc1S(=O)(=O)Nc1cc(C(F)(F)F)ccc1-n1cccc1', '> 6.30'),
  ('CCc1ccc(C(=O)O)cc1S(=O)(=O)Nc1cc(-c2nnco2)ccc1N1CCCCC1', '> 6.30'),
  ('O=C(O)c1ccc(C2CC2)c(S(=O)(=O)Nc2cc(-c3cn[nH]c3)ccc2-c2ccccn2)c1', '> 6.30'),
  ('[2H]C1([2H])C([2H])([2H])C1([2H])c1ccc(C(=O)O)cc1S(=O)(=O)Nc1cc(C#N)ccc1N1CCCCC1', '> 6.30'),
  ('COc1ccc(C(=O)O)cc1S(=O)(=O)Nc1cc(S(C)(=O)=O)ccc1-c1ccc(C)s1', '> 6.30'),
  ('Cc1oncc1-c1cc(NS(=O)(=O)c2cc(C(=O)O)ccc2C2CC2)c(-c2ccccn2)cc1Cl', '> 6.30'),
  ('CCc1ccc(C(=O)O)cc1S(=O)(=O)Nc1cc(C(F)(F)F)ccc1-c1cncs1', '> 6.30');
